Assay: melting temperature; fluorescence melt of hairpins on a sequencing array, two-state fit, raised by 9.35 °C to match UV melts
Conditions: sodium 0.088 M
Rule: Tm below 50 °C gives rule met, anything at or above gives rule not met.

Consider the sequence GTGAGAGGAAACCCTCAC (((((.(....).))))) . Is its Tm strictly less than 50 °C?
rule met

Field entry: GATCACCGTCGTGATC ((((((....))))))
rule not met

Field entry: GATCATCGGGATGATC ((((((....))))))
rule not met

Field entry: GGGCGGGGAAACCCGCTC (.(((((....))))).)
rule not met

###

Assay: melting temperature; fluorescence melt of hairpins on a sequencing array, two-state fit, raised by 9.35 °C to match UV melts
Conditions: sodium 0.088 M
Would you mind telling me the reported Tm of each entry?
Give bare numbers, in °C.

AAATCGAAAGATTT (((((....))))) = 46.6
GGTATCGGAAACGGTACC ((((.((....)).)))) = 51.6
GCTTGTGGAAACATAAGC ((((.((....)).)))) = 46.8

Each sequence below has a recorded value; state its Tm.
1. GCTCAGACGAAAGTCAGC (((..(((....))))))
2. GATCAGGATACTGATC ((((((....))))))
3. GCGGCCTCCCGC ((((....))))
4. GCATCGCGAAAGCGTGGC ((..(((....)))..))
5. GCGGTGACCGC ((((...))))

1. 41
2. 56
3. 56.3
4. 54.7
5. 56.6

Each sequence below has a recorded value; state its Tm.
1. GCGCGGCGAAAGCAACGC (((..((....))..)))
2. GGGAGGGGAAACCCTTCC ((.((((....)))).))
3. GATCCACGTATGGATC ((((((....))))))
4. GCGTTCTAACGC ((((....))))
5. GGTACTGGAAACGGTATC (.(((.(....).))).)
6. GAGGCAGCGAAAGCTCTC (((..(((....))))))
7. GTAGGCGAAAGCCCCTAC ((((((....)))..)))

60
51.6
51.6
58.5
27.7
31.8
23.7

Each sequence below has a recorded value; state its Tm.
1. GCTGTTCGAAAGAAAGC (((.(((....))))))
2. GTAAGCGAAAGCTTAC ((((((....))))))

1. 36.7
2. 67.2
